Parameter: Population Membrane Permeable-Phenotype (%). Scope: all listed entries.
- Tested on: HEK-293T
- TEST_NAME: Multiplex assay against HEK293T
- Assay type: toxicity, cell-based
- SETTINGS: human, 48 h, 1 µM, compound concentration 1 uM, replicate 2
Form entry: value (%) — number only.

Cc1c[nH]c2nccc(Oc3c(F)cc(Nc4cc(Cl)nc(N)n4)cc3F)c12 [BAY-549]: 8
CCCSc1nc(N[C@@H]2C[C@H]2c2ccc(F)c(F)c2)c2nnn([C@@H]3C[C@H](OCCO)[C@@H](O)[C@H]3O)c2n1 [TICAGRELOR]: 4
CC(C)c1noc(N2CCC(COc3ccc(-c4ccc(S(C)(=O)=O)cc4)nc3)CC2)n1 [GSK-1292263]: 8
CC(C)Oc1ccccc1C(=O)Nc1ccccc1C(=O)Nc1cccc(S(=O)(=O)C(F)(F)F)c1: 3
O=c1cc(N2CCOCC2)oc2c(-c3cccc4c3sc3ccccc34)cccc12: 3
O=C(c1cc2c(cc1F)OC(c1ccc(F)cc1)(c1ccc(Cl)cc1Cl)O2)N1CCOCC1 (stereo not drawn): 2
CN1CCN(Cc2ccc(Nc3ncc(Cl)c(Nc4ccccc4S(=O)(=O)N(C)C)n3)cc2)CC1 [DUBERMATINIB]: 20
COc1cc2ncn(-c3cc(OCc4ccccc4C(F)(F)F)c(C(N)=O)s3)c2cc1OC [GW843682X]: 13
CCc1ccc(OCc2ccccc2C(=O)Nc2ccc3nc(C)cc(N)c3c2)cc1.Cl: 0
Cc1cccc(CN2CCN(C(c3ccccc3)c3ccc(Cl)cc3)CC2)c1.Cl.Cl (stereo not drawn): 5

Prompt line: # Population Membrane Permeable-Phenotype (%) lookup, item CC(C)OC(=O)N1CCC(Oc2ncnc3c2cnn3-c2ccc(S(C)(=O)=O)cc2F)CC1
Response line: 3

Prompt line: Quick one: CC(C)NC(=O)N1CC[C@H](NC2=Nc3cc(F)ccc3N(CC(F)F)c3ccc(Cl)cc32)C1
Response line: 4

Prompt line: Quick one: COc1ccc(-c2ccc3ncc4c(c3c2)n(-c2ccc(N3CCNCC3)c(C(F)(F)F)c2)c(=O)n4C)cn1.O=C(O)/C=C\C(=O)O [BGT-226]
Response line: 3

---

- System: Fibroblast
- TEST_NAME: Multiplex assay against human fibroblast
- Type: toxicity, cell-based
- SETTINGS: 24 h, 10 µM, compound concentration 10 uM, replicate 1
Parameter: Population Mitotic Cells (%). Scope: all listed entries.
Form entry: value (%) — number only.

Prompt line: # Population Mitotic Cells (%) lookup, item COc1ccc(-c2ccc3ncc4c(c3c2)n(-c2ccc(N3CCNCC3)c(C(F)(F)F)c2)c(=O)n4C)cn1.O=C(O)/C=C\C(=O)O [BGT-226]
Response line: 41

---

- Test system: Fibroblast
- TEST_NAME: Multiplex assay against human fibroblast
- Assay type: toxicity, cell-based
- SETTINGS: 24 h, 1 µM, compound concentration 1 uM, replicate 2
READOUT_TYPE: Population Apoptotic (%)
Form entry: value (%) — number only.

COc1cc(Nc2nccc(-c3cnn4nc(OC)ccc34)n2)cc(C(F)(F)F)c1: 45
CC(C)(C)NC[C@H](O)COc1nsnc1N1CCOCC1: 50
C[C@]1(O)C[C@@H](c2nc(-c3ccc4ccc(-c5ccccc5)nc4c3)c3c(N)nccn32)C1: 50
COc1cc2ncn(-c3cc(OCc4ccccc4C(F)(F)F)c(C(N)=O)s3)c2cc1OC [GW843682X]: 55

Proceed to the following item.
Prompt line: # Population Apoptotic (%) lookup, item O=c1cc(N2CCOCC2)oc2c(-c3cccc4c3sc3ccccc34)cccc12
Response line: 60

Hey, just so you know, these numbers are from ChEMBL document CHEMBL4689842.
